From various publications: pIC50 for Cytochrome P450 3A4 (Homo sapiens).
Lab note — pIC50 values are minus log10 of concentrations in M.

Query string: Record lookup: for Cytochrome P450 3A4 (Homo sapiens), what pIC50 belongs to Cn1ncc(CC(=O)N(C2CCCC2)[C@@H](C(=O)NC23CC(C)(C2)C3)c2ccccc2)c1-n1nccn1 ?
Result string: 5.40

Query string: Continue with Cn1ncc(CC(=O)N(C2CCCC2)C(C(=O)NC23CC(C)(C2)C3)c2ccccc2)c1-c1c(F)cccc1F (stereo not drawn)
Result string: 5.15

Query string: What do you have for Cc1ncn(CC(=O)N(C[C@H]2CCCO2)[C@@H](C(=O)NC2CCCCC2)c2ccccc2)c1-c1ccccc1 ?
Result string: 5.14

Query string: Same read-out for Cc1nsc(CC(=O)N(C2CCCC2)[C@@H](C(=O)NC23CC(C)(C2)C3)c2ccccc2)c1-c1ccccc1 ?
Result string: 5.85

Query string: Entry to check: Cc1ccc2c(c1)nc(/C=C/c1cccc3cccnc13)n2-c1cccc(OCCCN2CCN(C)CC2)c1
Result string: 6.68

Query string: Next molecule up: Cn1ncc(CC(=O)N(C2CCCC2)[C@@H](C(=O)NC23CC(C)(C2)C3)c2ccccc2)c1-c1cccnc1
Result string: 5.12

Query string: Continue with C[C@@H](n1cc(-c2cncc(N(C)C)c2)nn1)n1ccc(N2CCC[C@@H](NCC3CC3)C2)cc1=O
Result string: 6.05

* * *

We begin with IC50 values for Cytochrome P450 3A4 (Homo sapiens, UniProt P08684), as collected from the published literature.
// note: answer is a bare numeric in nM

Query string: Any idea what IC50 came out for C[C@H]1CCCN1C(=O)c1nc(C(=O)NCC(C)(C)O)sc1-c1ccc(C(O)(C(F)(F)F)C(F)(F)F)c(Cl)c1Cl on Cytochrome P450 3A4 (Homo sapiens, UniProt P08684)?
Result string: 20000

Query string: Subsequent entry: CC(C)N(C(=O)Cc1cnn(C)c1-c1ccccc1)[C@@H](C(=O)NC12CC(C)(C1)C2)c1cc(F)ccc1F
Result string: 300

Query string: Request: N#Cc1ccc(-c2csc(C(=O)Nc3ccc(C(F)(F)F)cc3)n2)cc1
Result string: 2970

Query string: Likewise for CC12CC(NC(=O)[C@@H](c3ccccc3)N(C(=O)Cc3cnn(C(F)F)c3-c3ccccc3)C3CCCC3)(C1)C2 ?
Result string: 2000

* * *

Record set: IC50 | Cytochrome P450 3A4 (Homo sapiens) | literature, multiple sources.
Doc: threshold 10 µM (exclusive). Items with IC50 beneath it return class 1; others return class 0.

Query string: Regarding O=C(Nc1cc(Cl)cc(Cl)c1)c1nc(-c2cccc(Cl)c2)cs1 , kindly confirm whether its IC50 is beneath 10 µM.
Result string: class 0

Query string: Next record, please: COC(=O)c1cc(NC(=O)Cc2ccc(C)cc2)cc(-c2nc3ccccc3[nH]2)c1
Result string: class 0

Query string: Same read-out for N#Cc1ccc(-c2csc(C(=O)Nc3cc(Cl)cc(Cl)c3)n2)cc1 ?
Result string: class 1

Query string: Would you kindly repeat that for Cc1ncn(CC(=O)N(C2CCCC2)[C@@H](C(=O)NC23CC(C)(C2)C3)c2ccccc2)c1-c1ccccc1 ?
Result string: class 1

Query string: Also need CNC(=O)OC(C(=O)O)c1ccc(F)c(-c2ccc(OC)c(C(=O)N[C@H]3[C@@H](C(=O)Nc4ccc(F)c(C(F)(F)F)c4)[C@H]4CC[C@@H]3/C4=C\C3CC3)c2)c1 (stereo in doubt; 39) , thanks.
Result string: class 0

Query string: Do the same for CC12CC(NC(=O)[C@@H](c3ccccc3)N(C(=O)Cc3cnnn3-c3ccccc3)C3CCCC3)(C1)C2 please
Result string: class 1

Query string: Then Cn1nnc(-c2c(CC(=O)N(C3CCCC3)C(C(=O)NC34CC(C)(C3)C4)c3ccccc3)cnn2C)n1 (stereo not drawn) ?
Result string: class 0

Query string: Same for CC(C)N(C(=O)Cc1cnn(C)c1-c1ccccc1)[C@@H](c1cn(C23CC(C)(C2)C3)nn1)c1cc(F)ccc1F
Result string: class 1

Query string: Now the compound CC12CC(NC(=O)[C@@H](c3ccccc3)N(C(=O)Cn3cnc(Cl)c3-c3ccccc3)C3CCCC3)(C1)C2
Result string: class 0

Query string: Then CC12CC(NC(=O)[C@@H](c3ccccc3)N(C(=O)Cc3cnoc3-c3ccccc3)C3CCCC3)(C1)C2 ?
Result string: class 1

Query string: Input CCOC(=O)c1c(C2CN(c3cc(C(=O)NCCN(CC)CC)c4ccccc4n3)C2)nc2ccccn12
Result string: class 0

Query string: Can you check COc1cc2nccc(Oc3ccc(NC(=O)c4cnccc4OC)cc3F)c2cc1OC next?
Result string: class 0

Query string: Same question, N#Cc1ccc(COc2cccc(C3CCN(Cc4nc5ccc(C(=O)O)cc5n4C[C@@H]4CCO4)CC3)n2)c(F)c1 this time
Result string: class 0

Query string: Please answer likewise for O=C(O)c1ccc2nc(Cc3ccc(-c4ccc(F)c(OCc5ccc(Cl)c6ccoc56)n4)cc3F)n(C[C@@H]3CCO3)c2c1
Result string: class 0

Query string: One more compound: COc1cc(CC(=O)N2CCC(NC(=O)NCc3ccc(OC(F)(F)F)cc3)CC2)cc(OC)c1
Result string: class 0

Query string: Cn1ccc(-c2c(CC(=O)N(C3CCCC3)C(C(=O)NC34CC(C)(C3)C4)c3ccccc3)cnn2C)n1 (stereo not drawn) , same question.
Result string: class 1
